assayed.system: GalNAc3S(b1-4)GlcNAc3S
assay.details: glycan array binding signal (z-score within array); higher = stronger binding
assay.conditions: glycan notation: IUPAC condensed, linker removed
The entries come from a sample that favours the strongest signals as a whole.
Kindly supply the reported glycan array binding signal (z-score) values for the records listed here.
# print the numeric value only

Input: Could you share which glycan array binding signal (z-score) value was measured for EULS2 M2 (Oryza sativa) (protein) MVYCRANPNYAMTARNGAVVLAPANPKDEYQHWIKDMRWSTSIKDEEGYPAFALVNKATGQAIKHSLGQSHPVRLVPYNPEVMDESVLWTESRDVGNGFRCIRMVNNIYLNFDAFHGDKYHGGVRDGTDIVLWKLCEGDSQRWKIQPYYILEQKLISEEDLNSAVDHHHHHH ?
Output: 0.228

Input: Could you share which glycan array binding signal (z-score) value was measured for OrysaEULS2 (Oryza sativa) (protein) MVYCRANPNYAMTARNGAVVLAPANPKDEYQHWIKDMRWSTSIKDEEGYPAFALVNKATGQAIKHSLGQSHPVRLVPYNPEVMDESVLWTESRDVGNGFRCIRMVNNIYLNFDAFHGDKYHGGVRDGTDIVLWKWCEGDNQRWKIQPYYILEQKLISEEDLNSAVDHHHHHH ?
Output: -0.189

Input: Could you share which glycan array binding signal (z-score) value was measured for LICBM33A (Lactococcus lactis), Q9CE94 (protein) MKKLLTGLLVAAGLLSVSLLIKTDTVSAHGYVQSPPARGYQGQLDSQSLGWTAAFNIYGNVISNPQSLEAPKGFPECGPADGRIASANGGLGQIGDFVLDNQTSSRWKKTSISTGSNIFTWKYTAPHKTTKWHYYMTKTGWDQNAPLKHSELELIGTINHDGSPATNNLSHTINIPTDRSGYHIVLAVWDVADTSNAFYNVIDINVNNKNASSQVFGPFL ?
Output: -0.284
